- System: Pseudomonas aeruginosa
- procedure.summary: Broth microdilution MIC (Example 11)
- condition.label: Pseudomonas aeruginosa, P. aeruginosa MMX 4654; IMP-7, Lev^R, Cip^R, MEM^R, CAZ^R
measured.property: MIC

compound="CC(S)C(C)S.[Bi] (stereo not shown)" result="2 µg/mL"
compound="C[C@H]1COc2c(N3CCN(C)CC3)c(F)cc3c(=O)c(C(=O)O)cn1c23 [Levofloxacin, reference compound]" result="64 µg/mL"
compound="C[C@@H](O)[C@H]1C(=O)N2C(C(=O)O)=C(S[C@@H]3CN[C@H](C(=O)N(C)C)C3)[C@H](C)[C@H]12 [Meropenem, reference compound]" result="> 64 µg/mL"
compound=CC(C)(O/N=C(\C(=O)N[C@@H]1C(=O)N2C(C(=O)[O-])=C(C[n+]3ccccc3)CS[C@H]12)c1csc(N)n1)C(=O)O result="> 32 µg/mL"

====

- procedure.summary: Particle size distribution of BisEDT samples vs processing conditions (Table 111)
- Format: physicochemical
- condition.label: BisEDT sample
D [4,3] overview
measured.property: D [4,3] (μm)

compound="C1C[S][Bi]([S]CC[S][Bi]2[S]CC[S]2)[S]1 [Sample 15]" numeric_readout=0.86
compound="C1C[S][Bi]([S]CC[S][Bi]2[S]CC[S]2)[S]1.SCCS [Sample 3]" numeric_readout=2.3
compound="C1C[S][Bi]([S]CC[S][Bi]2[S]CC[S]2)[S]1 [Sample 7]" numeric_readout=1.4
compound="C1C[S][Bi]([S]CC[S][Bi]2[S]CC[S]2)[S]1 [Sample 4]" numeric_readout=1.7
compound="C1C[S][Bi]([S]CC[S][Bi]2[S]CC[S]2)[S]1 [Sample 10]" numeric_readout=0.97

====

- System: Escherichia coli
- procedure.summary: Broth microdilution MIC (Example 12)
- condition.label: E. coli CDC 114; ESBL/KPC
MIC overview
measured.property: MIC (µg/mL)

compound="C[C@@H](O)[C@H]1C(=O)N2C(C(=O)O)=C(S[C@@H]3CN[C@H](C(=O)N(C)C)C3)[C@H](C)[C@H]12 [MEM]" tested_on="Escherichia coli" unit_of_measurement=µg/mL qualifier_sign== numeric_readout=2
compound="CC(C)(O/N=C(\\C(=O)N[C@@H]1C(=O)N2C(C(=O)[O-])=C(C[n+]3ccccc3)CS[C@H]12)c1csc(N)n1)C(=O)O [CAZ]" tested_on="Escherichia coli" unit_of_measurement=µg/mL qualifier_sign=> numeric_readout=64
compound="C[C@H]1COc2c(N3CCN(C)CC3)c(F)cc3c(=O)c(C(=O)O)cn1c23 [LVX]" tested_on="Escherichia coli" unit_of_measurement=µg/mL qualifier_sign== numeric_readout=4
compound="NCC[C@H](O)C(=O)N[C@@H]1C[C@H](N)[C@@H](O[C@H]2O[C@H](CN)[C@@H](O)[C@H](O)[C@H]2O)[C@H](O)[C@H]1O[C@H]1O[C@H](CO)[C@@H](O)[C@H](N)[C@H]1O [AMK]" tested_on="Escherichia coli" unit_of_measurement=µg/mL qualifier_sign== numeric_readout=1

====

- Test system: Acinetobacter baumannii
- procedure.summary: Broth microdilution MIC (Example 12)
- condition.label: A. baumannii CDC 274; ESBL/OXA
MIC overview
measured.property: MIC (µg/mL)

compound="NCC[C@H](O)C(=O)N[C@@H]1C[C@H](N)[C@@H](O[C@H]2O[C@H](CN)[C@@H](O)[C@H](O)[C@H]2O)[C@H](O)[C@H]1O[C@H]1O[C@H](CO)[C@@H](O)[C@H](N)[C@H]1O [AMK]" qualifier_sign== numeric_readout=16
compound="C[C@@H](O)[C@H]1C(=O)N2C(C(=O)O)=C(S[C@@H]3CN[C@H](C(=O)N(C)C)C3)[C@H](C)[C@H]12 [MEM]" qualifier_sign=> numeric_readout=8
compound="C[C@H]1COc2c(N3CCN(C)CC3)c(F)cc3c(=O)c(C(=O)O)cn1c23 [LVX]" qualifier_sign== numeric_readout=8
compound="CC(C)(O/N=C(\\C(=O)N[C@@H]1C(=O)N2C(C(=O)[O-])=C(C[n+]3ccccc3)CS[C@H]12)c1csc(N)n1)C(=O)O [CAZ]" qualifier_sign=> numeric_readout=64

====

- procedure.summary: Particle size distribution of BisEDT samples vs processing conditions (Table 111)
- Assay type: physicochemical
- condition.label: BisEDT sample
measured.property: D [4,3] (μm)

molecule="C1C[S][Bi]([S]CC[S][Bi]2[S]CC[S]2)[S]1.SCCS [Sample 1]" unit_of_measurement=μm numeric_readout=2.9
molecule="C1C[S][Bi]([S]CC[S][Bi]2[S]CC[S]2)[S]1 [Sample 8]" unit_of_measurement=μm numeric_readout=1.0
molecule="C1C[S][Bi]([S]CC[S][Bi]2[S]CC[S]2)[S]1 [Sample 14]" unit_of_measurement=μm numeric_readout=1.2
molecule="C1C[S][Bi]([S]CC[S][Bi]2[S]CC[S]2)[S]1 [Sample 5]" unit_of_measurement=μm numeric_readout=0.86
molecule="C1C[S][Bi]([S]CC[S][Bi]2[S]CC[S]2)[S]1 [Sample 6]" unit_of_measurement=μm numeric_readout=0.98
molecule="C1C[S][Bi]([S]CC[S][Bi]2[S]CC[S]2)[S]1 [Sample 11]" unit_of_measurement=μm numeric_readout=1.4
molecule="C1C[S][Bi]([S]CC[S][Bi]2[S]CC[S]2)[S]1 [Sample 13]" unit_of_measurement=μm numeric_readout=1.2
molecule="C1C[S][Bi]([S]CC[S][Bi]2[S]CC[S]2)[S]1 [Sample 9]" unit_of_measurement=μm numeric_readout=1.1
molecule="C1C[S][Bi]([S]CC[S][Bi]2[S]CC[S]2)[S]1 [Sample 12]" unit_of_measurement=μm numeric_readout=1.3
molecule="C1C[S][Bi]([S]CC[S][Bi]2[S]CC[S]2)[S]1 [Sample 2]" unit_of_measurement=μm numeric_readout=2.0

====

- System: Pseudomonas aeruginosa
- procedure.summary: Broth microdilution MIC (Example 12)
- condition.label: P. aeruginosa CDC 444; VIM
MIC overview
measured.property: MIC

molecule="C[C@H]1COc2c(N3CCN(C)CC3)c(F)cc3c(=O)c(C(=O)O)cn1c23 [LVX]" tested_on="Pseudomonas aeruginosa" result="8 µg/mL"
molecule="NCC[C@H](O)C(=O)N[C@@H]1C[C@H](N)[C@@H](O[C@H]2O[C@H](CN)[C@@H](O)[C@H](O)[C@H]2O)[C@H](O)[C@H]1O[C@H]1O[C@H](CO)[C@@H](O)[C@H](N)[C@H]1O [AMK]" tested_on="Pseudomonas aeruginosa" result=">64 µg/mL"
molecule="C[C@@H](O)[C@H]1C(=O)N2C(C(=O)O)=C(S[C@@H]3CN[C@H](C(=O)N(C)C)C3)[C@H](C)[C@H]12 [MEM]" tested_on="Pseudomonas aeruginosa" result=">8 µg/mL"
molecule="CC(C)(O/N=C(\\C(=O)N[C@@H]1C(=O)N2C(C(=O)[O-])=C(C[n+]3ccccc3)CS[C@H]12)c1csc(N)n1)C(=O)O [CAZ]" tested_on="Pseudomonas aeruginosa" result="32 µg/mL"

====

- Test system: Acinetobacter baumannii
- procedure.summary: Broth microdilution MIC (Example 12)
- condition.label: A. baumannii CDC 307; OXA
MIC overview
measured.property: MIC (µg/mL)

chemical_smiles=C[C@H]1COc2c(N3CCN(C)CC3)c(F)cc3c(=O)c(C(=O)O)cn1c23 qualifier_sign== numeric_readout=8
chemical_smiles=C[C@@H](O)[C@H]1C(=O)N2C(C(=O)O)=C(S[C@@H]3CN[C@H](C(=O)N(C)C)C3)[C@H](C)[C@H]12 qualifier_sign== numeric_readout=8
chemical_smiles=NCC[C@H](O)C(=O)N[C@@H]1C[C@H](N)[C@@H](O[C@H]2O[C@H](CN)[C@@H](O)[C@H](O)[C@H]2O)[C@H](O)[C@H]1O[C@H]1O[C@H](CO)[C@@H](O)[C@H](N)[C@H]1O qualifier_sign=> numeric_readout=64
chemical_smiles=CC(C)(O/N=C(\C(=O)N[C@@H]1C(=O)N2C(C(=O)[O-])=C(C[n+]3ccccc3)CS[C@H]12)c1csc(N)n1)C(=O)O qualifier_sign== numeric_readout=64

====

MIC90 overview
- Tested on: Haemophilus influenzae
- procedure.summary: Broth microdilution MIC against Haemophilus influenzae clinical isolates
- condition.label: Haemophilus influenzae
measured.property: MIC90 (µg/mL)

molecule="CO/N=C(\\C(=O)N[C@@H]1C(=O)N2C(C(=O)O)=C(COC(N)=O)CS[C@H]12)c1ccco1 [cefuroxime, Cefuroxime]" tested_on="Haemophilus influenzae" numeric_readout=16
molecule="CC1(C)S[C@@H]2[C@H](NC(=O)[C@H](N)c3ccccc3)C(=O)N2[C@H]1C(=O)O [ampicillin, Ampicillin]" tested_on="Haemophilus influenzae" numeric_readout=4
molecule="C[C@H]1COc2c(N3CCN(C)CC3)c(F)cc3c(=O)c(C(=O)O)cn1c23 [Levofloxacin, reference compound]" tested_on="Haemophilus influenzae" numeric_readout=0.015
molecule="CC[C@H]1OC(=O)[C@H](C)[C@@H](O[C@H]2C[C@@](C)(OC)[C@@H](O)[C@H](C)O2)[C@H](C)[C@@H](O[C@@H]2O[C@H](C)C[C@H](N(C)C)[C@H]2O)[C@](C)(O)C[C@@H](C)CN(C)[C@H](C)[C@@H](O)[C@]1(C)O [azithromycin, Azithromycin]" tested_on="Haemophilus influenzae" numeric_readout=2
